tested.system: Sodium-dependent serotonin transporter (Homo sapiens)
Sequence (P31645 whole entry): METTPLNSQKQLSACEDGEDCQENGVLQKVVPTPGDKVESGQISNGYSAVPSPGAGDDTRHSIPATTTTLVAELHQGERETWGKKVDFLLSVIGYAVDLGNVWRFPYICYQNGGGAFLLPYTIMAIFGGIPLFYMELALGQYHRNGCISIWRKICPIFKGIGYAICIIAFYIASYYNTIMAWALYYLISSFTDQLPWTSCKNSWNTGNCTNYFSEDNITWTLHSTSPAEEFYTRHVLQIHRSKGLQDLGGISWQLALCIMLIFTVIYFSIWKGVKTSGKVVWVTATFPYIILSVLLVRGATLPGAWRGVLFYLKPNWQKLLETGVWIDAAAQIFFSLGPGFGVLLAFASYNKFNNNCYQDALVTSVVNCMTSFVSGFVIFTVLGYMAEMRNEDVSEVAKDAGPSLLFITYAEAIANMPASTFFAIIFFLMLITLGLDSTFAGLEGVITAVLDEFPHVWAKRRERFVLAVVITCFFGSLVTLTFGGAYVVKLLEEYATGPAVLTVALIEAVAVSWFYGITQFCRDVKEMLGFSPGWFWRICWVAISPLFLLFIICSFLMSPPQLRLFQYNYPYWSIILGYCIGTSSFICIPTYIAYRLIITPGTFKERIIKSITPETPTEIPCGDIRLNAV
test.summary: Inhibition of [3H]5-HT uptake in HEK293 cells expressing human serotonin transporter
Assay type: functional, cell-based
pIC50: −log10 of the molar value.
Listed below: pIC50 values for each entry.

compound="CCOC(=O)C(c1ccccc1)C1CCCCN1 (racemic)" reported="< 5.00"

// switching to the query compound
For the record CCOC(=O)[C@@H](c1ccccc1)[C@@H]1CCCCN1 (stereo in doubt; (-)-2) , what value of pIC50 is listed for Sodium-dependent serotonin transporter (Homo sapiens)?
< 5.00

* * *

tested.system: Sodium-dependent noradrenaline transporter (Homo sapiens)
Sequence (P23975 whole entry): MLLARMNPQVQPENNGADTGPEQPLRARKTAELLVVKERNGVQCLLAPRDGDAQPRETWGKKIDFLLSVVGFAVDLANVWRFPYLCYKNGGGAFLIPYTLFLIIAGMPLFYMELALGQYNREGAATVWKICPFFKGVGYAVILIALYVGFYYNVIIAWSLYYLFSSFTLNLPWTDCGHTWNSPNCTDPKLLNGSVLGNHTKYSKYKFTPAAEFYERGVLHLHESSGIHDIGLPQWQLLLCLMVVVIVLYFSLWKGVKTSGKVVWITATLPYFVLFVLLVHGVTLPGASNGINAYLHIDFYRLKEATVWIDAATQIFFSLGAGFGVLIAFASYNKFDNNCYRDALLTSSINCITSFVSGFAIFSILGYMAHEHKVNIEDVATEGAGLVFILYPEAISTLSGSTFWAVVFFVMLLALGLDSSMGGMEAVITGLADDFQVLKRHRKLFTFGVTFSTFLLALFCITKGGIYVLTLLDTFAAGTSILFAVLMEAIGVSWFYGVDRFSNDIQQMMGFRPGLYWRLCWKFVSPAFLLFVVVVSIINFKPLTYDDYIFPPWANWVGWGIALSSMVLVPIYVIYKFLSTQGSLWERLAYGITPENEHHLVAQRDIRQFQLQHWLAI
test.summary: Inhibition of [3H]norepinephrine uptake in HEK293 cells expressing human norepinephrine transporter
Assay type: functional, cell-based
Counter-ions that a name gives are not always drawn.
measure.name: IC50 (nM)
Expressed in nM, but write only the number.

molecule="COC(=O)C(c1ccccc1)C1CCCCN1 (racemic) [METHYLPHENIDATE HYDROCHLORIDE]" reported=51

Attention now turns to another entry.
Recorded IC50 of CCOC(=O)C(c1ccccc1)C1CCCCN1 (racemic) , please.
480
